target_entity: lysophospholipase D (autotaxin, ATX) (Homo sapiens, UniProt Q13822)
method_summary: Inhibition of lysophospholipase D autotaxin
Assay type: biochemical
particulars: Table 3
measurement_type: ATX (% inhib.) (%)
State just the number; it will be interpreted in %.

// map CCCCCCCCC=CCCCCCCCC1OCC(COP([O-])(O)=S)O1.[K+] (stereo not shown) [Analog 38] to recorded ATX (% inhib.) (system: lysophospholipase D (autotaxin, ATX) (Homo sapiens, UniProt Q13822))
64

lysophospholipase D (autotaxin, ATX) (Homo sapiens, UniProt Q13822) / ATX (% inhib.) / CCCCCCCCC=CCCCCCCCC1OCC(COP(=O)([O-])O)O1.[K+] (stereo not shown) [Analog 37] : value?
46

// fetch lysophospholipase D (autotaxin, ATX) (Homo sapiens, UniProt Q13822) ATX (% inhib.) for CCCCCCCCCCCCC1OCC(COP(=O)(O)O)O1 (stereo not shown) [Analog 12]
26

# query: ATX (% inhib.) | item CCCCCCCCC=CCCCCCCCC1OCC(COP(=O)([O-])O)O1.[K+] (mixture of isomers) [Analog 13] | system: lysophospholipase D (autotaxin, ATX) (Homo sapiens, UniProt Q13822)
30

###

target_entity: UniProt:Q9HBW0
Sequence (Q9HBW0 whole entry, species assumed): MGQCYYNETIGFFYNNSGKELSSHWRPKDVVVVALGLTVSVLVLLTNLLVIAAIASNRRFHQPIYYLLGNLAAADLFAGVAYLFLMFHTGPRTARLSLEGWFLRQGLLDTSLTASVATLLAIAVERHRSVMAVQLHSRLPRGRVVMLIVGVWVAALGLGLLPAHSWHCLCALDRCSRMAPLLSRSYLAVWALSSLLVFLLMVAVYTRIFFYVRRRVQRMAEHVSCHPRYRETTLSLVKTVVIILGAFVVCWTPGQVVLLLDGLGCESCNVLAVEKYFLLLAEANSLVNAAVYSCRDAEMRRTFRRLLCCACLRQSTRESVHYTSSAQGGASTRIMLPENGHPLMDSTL
method_summary: Ca2+ transients in RH7777 cells expressing LPA2 (agonist / inhibition of LPA response)
particulars: read-out: LPA2 IC50; Table 3
Provide the reported IC50 of each item.

Reported IC50 for CCCCCCCCC=CCCCCCCCC1OCC(COP([O-])(O)=S)O1.[K+] (stereo not drawn) [Analog 38] : what is it?
> 30 µM

Looking for the measured IC50 of CCCCCCCCC=CCCCCCCCC1OCC(COP(=O)([O-])O)O1.[K+] (mixture of isomers) [Analog 13] , can you help?
> 30 µM

What value of IC50 has been reported for the following compound? CCCCCCCCC=CCCCCCCCC1OCC(COP(=O)([O-])O)O1.[K+] (stereo not drawn) [Analog 37]
> 30 µM

###

target_entity: LPA1 (Homo sapiens)
method_summary: Ca2+ transients in RH7777 cells expressing LPA1 (agonist / inhibition of LPA response)
Please provide measured Ki for the entries that follow.
Numeric only. Scale: µM

Name the reported Ki value associated with the compound CCCCCCCC(=O)OCC(COP(=O)(O)O)OC(=O)CCCCCCC (centres unmarked) [Cpd 2, phosphatidic acid 8:0, reference compound]
0.407

Recorded Ki for CCCCCCCCCCCCC1OCC(COP(=O)(O)O)O1 (centres unmarked) , please?
0.652

###

target_entity: LPA3 (Homo sapiens, UniProt Q9UBY5)
Sequence (Q9UBY5 whole entry, species assumed): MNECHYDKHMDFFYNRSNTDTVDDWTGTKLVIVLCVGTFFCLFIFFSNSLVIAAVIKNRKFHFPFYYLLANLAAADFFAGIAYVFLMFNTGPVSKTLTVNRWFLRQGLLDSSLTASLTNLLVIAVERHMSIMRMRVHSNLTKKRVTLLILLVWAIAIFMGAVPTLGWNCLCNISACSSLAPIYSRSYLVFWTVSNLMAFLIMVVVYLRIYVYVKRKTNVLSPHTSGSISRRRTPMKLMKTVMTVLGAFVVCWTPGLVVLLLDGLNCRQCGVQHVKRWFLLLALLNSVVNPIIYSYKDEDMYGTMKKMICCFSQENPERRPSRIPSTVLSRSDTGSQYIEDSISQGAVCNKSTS
method_summary: Ca2+ transients in RH7777 cells expressing LPA3 (agonist / inhibition of LPA response)
particulars: read-out: LPA3 (Ki); Table 3
I'd appreciate it if you could supply pKi values for the items below.
In textbook form, pKi equals minus log to base ten of the concentration in mol/L.

Form field: reported pKi of CCCCCCCCC=CCCCCCCCC1OCC(COP(=O)([O-])O)O1.[K+] (centres unmarked) [Analog 37]
6.62

Look at this compound and give its reported pKi. CCCCCCCCC=CCCCCCCCC1OCC(COP(=O)([O-])O)O1.[K+] (mixture of isomers) [Analog 13]
6.26

###

target_entity: LPA1 (Homo sapiens, UniProt Q92633)
Sequence (Q92633 whole entry, species assumed): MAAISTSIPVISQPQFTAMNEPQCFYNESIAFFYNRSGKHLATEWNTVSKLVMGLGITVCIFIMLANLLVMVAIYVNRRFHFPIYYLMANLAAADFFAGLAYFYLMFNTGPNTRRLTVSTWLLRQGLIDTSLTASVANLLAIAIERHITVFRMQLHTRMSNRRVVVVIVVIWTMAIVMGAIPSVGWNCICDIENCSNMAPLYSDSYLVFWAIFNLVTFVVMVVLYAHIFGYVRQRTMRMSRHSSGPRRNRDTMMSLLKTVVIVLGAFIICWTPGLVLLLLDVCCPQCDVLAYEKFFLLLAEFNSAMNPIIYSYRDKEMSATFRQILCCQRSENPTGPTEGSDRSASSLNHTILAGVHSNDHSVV
method_summary: Ca2+ transients in RH7777 cells expressing LPA1 (agonist / inhibition of LPA response)
measurement_type: LPA1 agonist/antagonist activity in words

compound="CCCCCCCCNC(=O)[C@H](COP(=O)(O)O)NC(=O)CCCCCCC [Cpd 19a]" endpoint_result="no effect"
compound="CCCCCCCCc1ccc(CCCCCCC2OCC(COP([O-])(O)=S)O2)cc1.[K+] (stereo not shown) [Analog 15]" endpoint_result="no effect"
compound="CCCCCCCC/C=C\\CCCCCCCC1OCC(COP([O-])(O)=S)O1.[K+] (stereo not shown) [Analog 6]" endpoint_result=pan-agonists
compound="CCCCCCCCNC(=O)[C@@H](COP(=O)(O)O)NC(=O)CCCCCCC [Cpd 19b]" endpoint_result="no effect"

The record that follows has no LPA1 agonist/antagonist activity in words shown yet.
Query (compound): CCCCCCCCC=CCCCCCCCC1OCC(COP([O-])(O)=S)O1.[K+] (stereo not shown) [Analog 38] ; field requested: LPA1 agonist/antagonist activity in words
pan-agonists

meta.source: patent US20060270634A1
